- System: HCC 2998
- measurementProtocol: NCI tumour cell line growth inhibition, 48 h
Calls of active or inactive are those of the source. Cut-off read from the data, not from the text of the source: active = GI50 up to about 1.1 µM and inactive = higher.
Each item that follows carries a reported GI50.

molecule | measure | testValue
O=C(N[C@@H]1C=CCC[C@@H]1c1ccccc1)OCc1ccccc1 | GI50 | 20.6 µM (inactive)

So, C[C@H](CCC1SC1(C)C)C1CCC2(C)C3=C(CC[C@]12C)[C@@]1(C)CC[C@H](O)C(C)(C)C1CC3 (stereo not given in full) ? Its GI50 was > 100 µM (inactive)

get_value(item= COC(=O)C1(Cc2ccc3c(c2)CCC3)Cc2cc3c(cc2C1=O)CCC3 (stereo not given) , readout=GI50) returns 22.1 µM (inactive)

---

- Test system: UO-31
- measurementProtocol: NCI tumour cell line growth inhibition, 48 h
The source made the active and inactive calls. Cut-off read from the data, not from the text of the source: active = GI50 up to about 1.1 µM and inactive = higher.
Select the correct class. Options are active, inactive and nothing else.

compound | answerLabel
CC1=NC(=Cc2cccc(Cl)c2)C(=O)N1n1c(-c2ccccc2)nc2ccccc2c1=O | inactive
CCCOP1(=O)C=C(O)C(Cl)=C(C)C1 (stereo not given) | inactive
CC[C@H]1C=CCC[C@@]2(C[C@@H]3CC[C@@H]4[C@H](C(=O)OCCCCCCCCCCCCCCCC(=O)N(CCCN)CCCCN)[C@]5(CCC[C@@H](C)O5)NC(=[N+]34)N2)O1 | active
COc1ccc(C(=O)/C=C/c2cccnc2)cc1OC | inactive
CC(C)=Cc1cc(C(=O)Nc2ccc(Cl)c(Cl)c2)nc(N)n1 | inactive
O=C(O)c1oc(C(=O)O)c(C(=O)O)c1C(=O)O | inactive
CSc1nc2nc(C)c(C)nc2c(=O)[nH]1 | inactive
CC1CC(=O)Nc2cc(Cl)ccc2N1C(=O)C1CC1 (stereo not given) | inactive

Qu. Could you check what this test reported for CN(C)C(=O)Oc1ccc(C(=S)Nc2ccccc2)cc1Br ?
Ans. inactive

Qu. Would you mind telling me which call this test gave COc1ccc(N(C)C(=O)N(C)c2ccc([N+](=O)[O-])cc2)cc1 ?
Ans. inactive

---

Recorded measurements of GI50, one per entry
- Test system: NCI-H226
- measurementProtocol: NCI tumour cell line growth inhibition, 48 h
Calls of active or inactive are those of the source. No stated cut-off is given here; in the data, active = GI50 up to about 1.1 µM and inactive = higher. Where a SMILES comes first, the peptide text is derived from it. The star is where a group is joined. Cbz = O=C(OCc1ccccc1)*

compound | GI50
O=C1NC2OCC(O)C(O1)C2O (centres undefined) | > 100 µM (inactive)
CCOC(=O)C(CC(=O)OC)NC(=O)C(CC(=O)OC)NC(=O)C(CC(=O)OC)NC(=O)C(CC(=O)OC)NC(=O)OCc1ccccc1 (centres undefined) (Cbz-D(OMe)D(OMe)D(OMe)D(OMe)-OEt; configuration not given here) | > 100 µM (inactive)
COC1C(OC(=O)/C=C/C=C/C=C/C=C\C(=O)O)CCC2(CO2)C1C1(C)OC1CC=C(C)C (centres undefined) | > 100 µM (inactive)
COC[n+]1cc2cc(OC)c(OC)cc2c2ccc3cc(OC)c(OC)cc3c21 | > 100 µM (inactive)
S=C(/N=c1\sc(Nc2ccc(Cl)cc2)nc2sc3c(c12)CCN(N1CCc2c(sc4nc(Nc5ccc(Cl)cc5)s/c(=N\C(=S)Nc5ccc(Cl)cc5)c24)C1)C3)Nc1ccc(Cl)cc1 | 78.2 µM (inactive)
COc1cc([C@@H]2c3cc4c(cc3[C@@H](OC(=O)c3ccccc3)C3COC(=O)[C@@H]32)OCO4)cc(OC)c1O (some centres undefined) | < 0.01 µM (active)
NC(=O)CN1CCN(c2nc(N3CCCC3)c3nc(Cl)c(NCc4ccccc4)nc3n2)CC1 | 11.8 µM (inactive)
Cc1ccc([N+](=O)[O-])c2c(NCCC[N+](C)(C)[O-])ccnc12 | 98.9 µM (inactive)
Fc1ccc(NC(=S)SCc2ccc3c(c2)OCO3)cc1F | 37.7 µM (inactive)
COc1cc(CO)c(CC(=O)NCCCc2ccccc2)cc1OC | > 100 µM (inactive)

Given the compound O=c1c2ccccc2nc(-c2ccc(Br)cc2)n1NC1OC(CO)C(O)C(O)C1O (centres undefined) and test system NCI-H226, the measured GI50 is > 100 µM (inactive)

GI50 for NCI-H226 with input CCOc1ccc(NC(=O)C(=O)CC(=O)c2c(C)[n+]([O-])c3ccccc3[n+]2[O-])cc1 equals > 100 µM (inactive)

Tested system NCI-H226; GI50 recorded for CC(=O)/C=C1\CC(=O)N(C)c2ccccc2N1 was > 100 µM (inactive)

Tested on NCI-H226: COC(=O)C1(C(=O)OC)N=C(C)OC1c1ccccc1O (centres undefined) . Observed GI50: > 100 µM (inactive)

Lab note: compound O=C1Cc2ccccc2N1/N=C\c1ccc(O)cc1 tested on NCI-H226; recorded GI50 was > 100 µM (inactive)

Test item CC(C)=CCC[C@@H](C)C1=C(Nc2ccccc2F)C(=O)C(C)=C(O)C1=O ; NCI-H226; reported GI50 was 5.3 µM (inactive)

# GI50 measured on NCI-H226 for item CN(C)C(c1ccccc1)C1COC2Cc3ccccc3C1O2 (centres undefined) = 72.9 µM (inactive)

NCI-H226 data for CCN(CCO)C(=O)C1(c2ccccc2)CCCCC1 ; its GI50: > 10 µM (inactive)

Record Nc1c([N+](=O)[O-])cc2c3c(cccc13)CC2 ; system NCI-H226; GI50 = > 100 µM (inactive)

---

- System: U-251
- measurementProtocol: NCI tumour cell line growth inhibition, 48 h
Calls of active or inactive are those of the source. Rule as the data show it: active = GI50 up to about 1.1 µM and inactive = higher.
Log the outcome using a class from t = active, f = inactive

molecule | answerLabel
CC[C@]12C=CCN3CCC4(c5cc([C@@]6(C(=O)OC)CC7CN(CCc8c6[nH]c6ccccc86)CC6CCCCC67)c(OC)cc5N(C)C4[C@](O)(C(=O)OC)C1OC(C)=O)[C@@H]32 (some centres undefined) | t

Next molecule, please.
Qu. // param item: N#Cc1nc(C2CCC(=O)O2)oc1N (centres undefined) ; yields the recorded call
Ans. f

---

# GI50 listing for each entry below
- Test system: SNB-19
- measurementProtocol: NCI tumour cell line growth inhibition, 48 h
Active and inactive are the calls of the source. No stated cut-off is given here; in the data, active = GI50 up to about 1.1 µM and inactive = higher.

Take a look at these entries with their results.
compound | testValue
O=C(N/N=C1\C(=O)Nc2ccc(Br)cc21)/C(O)=C/C(=O)c1ccc(Cl)cc1 | 50.4 µM (inactive)
COC(=O)c1ccccc1/C=C1\Cc2ccc3c(c2C1=O)CCCC3 | > 100 µM (inactive)
O=C1NC2(CCCCC2)C2CCCCC(O)C12 (stereo unspecified) | > 100 µM (inactive)
Cc1ccc2nc3ccccc3c(C3C4C(=O)N(c5ccc(F)cc5)C(=O)C4ON3C(C(N)=O)c3ccccc3)c2c1 (stereo unspecified) | 57.8 µM (inactive)
CCCCC[C@H]1CC=CC(=O)O1 | 10.1 µM (inactive)

Then there is this compound:
In plain terms, CCCOP1(=O)C=C(O)C(Cl)=C(C)C1 (stereo unspecified) has a documented GI50 of > 100 µM (inactive)

---

- Test system: NCI-H460
- measurementProtocol: NCI tumour cell line growth inhibition, 48 h
The source made the active and inactive calls. No stated cut-off is given here; in the data, active = GI50 up to about 1.1 µM and inactive = higher.
measure: GI50

The examples below pair each entry with its known result.
compound | GI50
CC(C)(C)c1ccc(C(O)c2ccc(C(C)(C)C)cc2)cc1 | 12.8 µM (inactive)
COc1ccc(OC)c(/C=C/NC=O)c1 | > 100 µM (inactive)

Value (GI50, NCI-H460) for record COc1ccc([C@@]23CCC(=O)C[C@@H]2N(C)CC3)cc1OC = > 100 µM (inactive)

Reading of GI50 for CCOC(=O)CC1COc2ccc3c(c21)OCO3 (stereo unspecified) with NCI-H460: > 100 µM (inactive)

Field GI50 (NCI-H460), entry CC(C)=Cc1cc(C(=O)Nc2ccc(Cl)c(Cl)c2)nc(N)n1 : > 100 µM (inactive)

Recorded GI50 for Cc1ccc2nc(NC(=O)C(=O)C(C#N)c3ccc(Cl)cc3)sc2c1 (stereo unspecified) on NCI-H460 was > 50 µM (inactive)

Entry O/N=C\C(=N/O)Nc1ccc(Cc2ccc(NC(/C=N\O)=N/O)cc2)cc1 under NCI-H460 had GI50 of 34.8 µM (inactive)

---

- System: 786-0
- measurementProtocol: NCI tumour cell line growth inhibition, 48 h
Calls of active or inactive are those of the source. Rule as the data show it: active = GI50 up to about 1.1 µM and inactive = higher.
API: response.call in active, inactive

Would you please look over these solved cases?
compound | answerLabel
Cc1c(C(=O)/C=C/c2cccc3ccccc23)[n+]([O-])c2ccccc2[n+]1[O-] | inactive
N#Cc1nc(C2CCC(=O)O2)oc1N (stereo not given) | inactive
C=C1Oc2nc3ccccc3c(=O)n2C1(C)C | inactive
N#C/C(=C\c1ccc(O)c(O)c1)C(=O)NC1CCC(CC2CCC(NC(=O)/C(C#N)=C/c3ccc(O)c(O)c3)CC2)CC1 (stereo not given) | inactive

Qu. Tell me the recorded outcome of this test for O/N=C\C(=N/O)Nc1ccc(Cc2ccc(NC(/C=N\O)=N/O)cc2)cc1 .
Ans. inactive

Qu. # outcome recorded in this test, key = COc1ccc2c(c1)OCCC1=C2SCC2(C)CCN=C12 (stereo not given)
Ans. inactive

Qu. Can you look up the reported call for COC(=O)C1(Cc2ccc3c(c2)CCC3)Cc2cc3c(cc2C1=O)CCC3 (stereo not given) for me?
Ans. inactive

Qu. Lab log entry: CCOC(=O)c1ccc(C(=O)n2ccnc2)[nH]1 — outcome as called in the assay?
Ans. inactive

Qu. Hi team, can someone confirm the assay call for CN(C)CC(/C(Cc1ccccc1)=N\NC(=O)c1ccncc1)c1ccccc1 (stereo not given) ?
Ans. inactive

Qu. # outcome recorded in this test, key = CCOC(=O)N1CCC(N[C@@H]2c3cc4c(cc3[C@@H](c3cc(OC)c(O)c(OC)c3)[C@H]3C(=O)OC[C@@H]32)OCO4)CC1
Ans. active
